Every entry's value here was drawn from patent US20070081998A1.

Biological target: T1, biotinylated ADDL (bADDL) (UniProt P05067 672-713, N-terminal biotin)
T1 construct: domain: Aβ1-42; Soluble oligomers of Aβ1-42; also called bADDLs; biotinylated high molecular weight ADDL
Experiment: BIACORE, bADDL as antigen; column IgG1 #1
Exercise: state measured pKd for each of the binders provided.
Give bare numbers, as −log10 of the molar value.

20C2-3A IgG1 (antibody, V domains shown, IgG1 humanized A version; also called SJ-p3-16) VH: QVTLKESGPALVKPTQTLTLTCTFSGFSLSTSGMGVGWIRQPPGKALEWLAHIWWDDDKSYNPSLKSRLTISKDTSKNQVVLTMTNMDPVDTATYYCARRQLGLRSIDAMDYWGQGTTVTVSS VL: DVVMTQSPLSLPVTPGEPASISCRSSQSILHSNGNTYLEWYLQKPGQSPQLLIYKVSNRFSGVPDRFSGSGSGTDFTLKISRVEAEDVGVYYCFQGSFIPGTFGQGTKLEIK	8.43

Then this binder:
GET /values?readout=pKd&item= 20C2-8A IgG1 (antibody, V domains shown, IgG1 humanized A version; also called SJ-p2-39) VH: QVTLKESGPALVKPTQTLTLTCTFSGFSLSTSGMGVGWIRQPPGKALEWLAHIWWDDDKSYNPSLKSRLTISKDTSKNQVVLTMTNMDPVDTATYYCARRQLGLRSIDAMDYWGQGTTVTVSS VL: DVVMTQSPLSLPVTPGEPASISCRSSQSILHSNGNTYLEWYLQKPGQSPQLLIYKVSNRFSGVPDRFSGSGSGTDFTLKISRVEAEDVGVYYCLQTTRVPLTFGQGTKLEIK 11.52
